System: HeLa
measurement protocol: Nitric oxide releasing activity in human HeLa cells assessed as nitrite accumulation at 100 uM after 5 hrs by Griess reagent based colorimetric assay
Type: ADME, cell-based
property measured: Nitrite concentration (µM)

COc1ccc(/C=C/C(=O)N2C[C@@H](NC(=O)c3cccc4no[n+]([O-])c34)C[C@H]2C(=O)NO)cc1OC :: 25.51
O=C(N[C@H]1C[C@@H](C(=O)NO)N(S(=O)(=O)c2ccc(Oc3ccccc3)cc2)C1)c1ccc2no[n+]([O-])c2c1 :: 34.43
COc1ccc(/C=C/C(=O)N2C[C@@H](NC(=O)c3ccc4no[n+]([O-])c4c3)C[C@H]2C(=O)NO)cc1OC :: 33.11
O=C(N[C@H]1C[C@@H](C(=O)NO)N(S(=O)(=O)c2ccc(Oc3ccccc3)cc2)C1)c1cccc2no[n+]([O-])c12 :: 27.87

Value source: ChEMBL document CHEMBL4229514
